- tested-target: hA1AR (Homo sapiens)
- Sequence (P30542 1-326): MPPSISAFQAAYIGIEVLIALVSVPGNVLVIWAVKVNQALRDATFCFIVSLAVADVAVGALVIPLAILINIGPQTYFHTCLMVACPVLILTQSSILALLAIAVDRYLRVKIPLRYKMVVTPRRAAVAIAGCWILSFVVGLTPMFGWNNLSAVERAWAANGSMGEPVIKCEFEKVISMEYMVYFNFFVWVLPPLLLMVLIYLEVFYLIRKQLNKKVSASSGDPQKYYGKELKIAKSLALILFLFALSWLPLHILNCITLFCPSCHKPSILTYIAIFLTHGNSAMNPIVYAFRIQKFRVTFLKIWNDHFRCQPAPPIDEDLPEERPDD
- test: hA1AR radioligand binding, CHO cell membranes
- applied-conditions: ratio of binding Ki
For each record, write down the corresponding hA1AR selectivity compared to hA3AR.
Answers are plain numbers, in fold.

Study these solved cases before continuing.
O[C@H]1[C@H](n2cnc3c(N[C@H]4C[C@H]5CC[C@@H]4C5)nc(Cl)nc32)[C@H]2C[C@@]2(CCl)[C@H]1O: 10
OC[C@@]12C[C@@H]1[C@@H](n1cnc3c(N[C@H]4C[C@H]5CC[C@@H]4C5)nc(Cl)nc31)[C@H](O)[C@@H]2O: 12
O[C@@H]1[C@H](O)[C@@H](CCl)O[C@H]1n1cnc2c(NC(C3CCC3)C3CCC3)ncnc21: 3390

Read the next record carefully.
*Q* Please tell me: hA1AR selectivity compared to hA3AR of OC[C@H]1O[C@@H](n2cnc3c(NC(C4CCC4)C4CCC4)nc(Cl)nc32)[C@H](O)C1O (stereo in doubt) , system hA1AR (Homo sapiens)?
*A* 742
